Protocol: Metabolic stability in rat liver microsomes assessed as half life
Format: ADME, Microsome
Assay readout: half-life (min)

>  <Compound>
CNc1nc(NCc2ccc(NC(=O)c3ccc(Cl)cc3)cc2)c2c(C)cccc2n1

>  <Number>
12

$$$$
>  <Compound>
CNc1nc(NCc2ccc(NC(=O)c3ccc(Cl)cc3)cc2)c2ccc(C)cc2n1

>  <Number>
18

$$$$
>  <Compound>
CN(C)c1nc(NCc2ccc(NC(=O)c3ccc(F)cc3)cc2)c2ccc(C#N)cc2n1

>  <Number>
11

$$$$
>  <Compound>
CNc1nc(NCc2ccc(NC(=O)c3ccc(Cl)cc3)cc2)c2ccccc2n1

>  <Number>
30

$$$$
>  <Compound>
CNc1nc(NCc2ccc(NC(=O)c3ccc(F)cc3)cc2)c2ccccc2n1

>  <Number>
21

$$$$
>  <Compound>
Cc1ccc2c(NCc3ccc(NC(=O)c4ccc(F)cc4)cc3)nc(N3CCNCC3)nc2c1

>  <Number>
5

$$$$
>  <Compound>
Cc1ccc2c(NCc3ccc(NC(=O)c4ccc(F)cc4)cc3)nc(N3CCN(C)CC3)nc2c1

>  <Number>
3

$$$$
>  <Compound>
CNc1nc(NCc2ccc(NC(=O)c3ccc(Cl)nc3)cc2)c2c(C)cccc2n1

>  <Number>
2

$$$$
>  <Compound>
CNc1nc(NCc2ccc(NC(=O)c3ccc(F)cc3)cc2)c2c(C)cccc2n1

>  <Number>
15

$$$$
>  <Compound>
CNc1nc(NCc2ccc(NC(=O)c3ccc(Cl)cc3)cc2)c2cc(C)ccc2n1

>  <Number>
6

$$$$
>  <Compound>
CC(O)c1ccc2c(NCc3ccc(NC(=O)c4ccc(F)cc4)cc3)nc(N(C)C)nc2c1 (racemic)

>  <Number>
6

$$$$
